- assayConditions: fish
Could you please report measured log10 biotransformation half-life (days) for the items listed next?
Give bare numbers.

The following molecules have reported results that may help.
>  <molecule>
C=Cc1cccc(C=C)c1

>  <log10 biotransformation half-life (days)>
0.59

$$$$
>  <molecule>
Cc1ccc(C)c(C)c1

>  <log10 biotransformation half-life (days)>
-0.31

$$$$

State recorded log10 biotransformation half-life (days) for all listed molecules.
1. CCCCCCCCC(C)CCC (centres undefined)
2. Oc1c(Cl)c(Cl)cc(Cl)c1Cl

1. 0.98
2. -0.1

---

Could you please report measured boiling point for the items listed next?
Numbers only, in °C.

>  <molecule>
CCN(CC)CCCC(C)N (configuration not stated)

>  <unitDescriptor>
°C

>  <boiling point>
201

$$$$
>  <molecule>
O=C1CCCCC1C1=CCCCC1 (configuration not stated)

>  <unitDescriptor>
°C

>  <boiling point>
265

$$$$
>  <molecule>
CC(C)C(c1ccccc1)C(C)C

>  <unitDescriptor>
°C

>  <boiling point>
221

$$$$
>  <molecule>
c1ccc2c(c1)Cc1ccccc1S2

>  <unitDescriptor>
°C

>  <boiling point>
341

$$$$
>  <molecule>
Cc1cccc(C)c1Br

>  <unitDescriptor>
°C

>  <boiling point>
204

$$$$

State recorded boiling point for all listed molecules.
1. CCCOc1ccccc1O
2. CCC(C)c1ccccc1 (configuration not stated)

1. 227
2. 174

---

Categorize each record by its melting point using group 1: < -80 °C; group 2: ≥ -80 °C and < 60 °C; group 3: ≥ 60 °C

Some entries whose results are on file:
>  <smilesRepresentation>
c1ccc(C2CCCCC2)cc1

>  <categoryLabel>
group 2

$$$$
>  <smilesRepresentation>
CC(C)C1CC1

>  <categoryLabel>
group 1

$$$$
>  <smilesRepresentation>
C=CC=O

>  <categoryLabel>
group 1

$$$$

Textbook exercise: identify the category of the compound given here, Cc1cc(C)c(C)c(C)c1C , according to its measured value.
group 2

Continue with Cc1cc([N+](=O)[O-])ccc1N
group 3

Continue with CC(C)=CCC1C(=O)N(c2ccccc2)N(c2ccccc2)C1=O
group 3

Continue with C=C(C)CC(C)=O
group 2

---

Could you please report measured melting point for the items listed next?
One number for each entry, in °C.

The following compounds have reported results that may help.
>  <compound>
CC(C)(Oc1ccccc1)C(=O)O

>  <endpointResult>
98.5

$$$$
>  <compound>
Cc1ccc2ccccc2c1N

>  <endpointResult>
32

$$$$

State recorded melting point for all listed compounds.
1. O=C(O)CCCCCCCCCCBr
2. Cc1cccc(C)c1N(C(=O)CCl)C1CCOC1=O (stereo not drawn)

1. 57
2. 146

State recorded melting point for all listed compounds.
1. C[C@@H]1CC[C@@]2(OC1)O[C@H]1C[C@H]3[C@@H]4CC=C5C[C@@H](O)CC[C@]5(C)[C@H]4CC[C@]3(C)[C@H]1[C@@H]2C
2. O=S1CCC1
3. CN1C(=O)C(C)(C2=CCCCC2)C(=O)N=C1O (stereo not drawn)

1. 206
2. 31.5
3. 146

---

recordedMetric: log10 vapour pressure (mmHg)
Numbers only.

>  <compound>
O=c1c(Cl)c(Cl)cnn1-c1ccccc1

>  <endpointResult>
-4.05

$$$$

State recorded log10 vapour pressure (mmHg) for all listed compounds.
1. O=C(O)c1ccccc1O
2. CNC(=O)ON=C(C)C(C)SC (stereo not drawn)

[-4.09, -4.1]

---

Could you please report measured melting point for the items listed next?
One number for each entry, in °C.

>  <molecule>
NNC(=O)c1ccccc1

>  <melting point [°C]>
115

$$$$
>  <molecule>
Cc1cc(O)c(C(C)(C)C)cc1Sc1cc(C(C)(C)C)c(O)cc1C

>  <melting point [°C]>
162

$$$$
>  <molecule>
C#CC1(OC(N)=O)CCCCC1

>  <melting point [°C]>
96

$$$$
>  <molecule>
COc1cccc(OC)c1OC

>  <melting point [°C]>
48.5

$$$$
>  <molecule>
Cc1ccc2c(c1)C(=O)c1ccccc1C2=O

>  <melting point [°C]>
177

$$$$
>  <molecule>
COc1cc(-c2coc3cc(O)c(OC)c(O)c3c2=O)cc(O)c1OC

>  <melting point [°C]>
185

$$$$

State recorded melting point for all listed molecules.
1. C[C@@H](O)C1CC1
2. Cc1ccc(O)c(-n2nc3ccccc3n2)c1

1: -32.1; 2: 132

State recorded melting point for all listed molecules.
1. CCCCCCCCCCOc1ccc(C(=O)O)cc1
2. CCOC(=O)CCC(=O)CC1(O)C2(Cl)C3(Cl)C4(Cl)C(Cl)(Cl)C5(Cl)C3(Cl)C1(Cl)C5(Cl)C42Cl (stereo not drawn)
3. CCC(=O)Cl
4. Cc1ccc(C(C)C)cc1O
5. CCC(CC)COC(=O)CCCCC(=O)OCC(CC)CC
6. O=[N+]([O-])c1cccs1
7. Nc1ccc(Nc2ccc(N)cc2)cc1
8. CCCCCCCCC(=O)O

114
91
-94
1
-15
46.5
158
12.3

State recorded melting point for all listed molecules.
1. OCC1O[C@@H](Oc2ccccc2)[C@H](O)[C@@H](O)[C@H]1O (stereo partly drawn)
2. CC(=O)N1C[C@H](O)C[C@H]1C(=O)O
3. Cc1c2ccncc2c(C)c2c1[nH]c1ccccc12
4. O=C(O)Cc1ccc(Cl)cc1
5. COP(=O)(OC)SCn1c(=O)oc2cc(Cl)cnc21
6. COc1cnc(NS(=O)(=O)c2ccc(N)cc2)nc1
7. C=C(C)CNc1ccc(C(C)C(=O)O)cc1 (stereo not drawn)

1. 166
2. 132
3. 313
4. 106
5. 89
6. 215
7. 107

---

Entry flag: condition met if melting point reaches 70 °C; condition not met if it does not.

Some entries whose results are on file:
>  <molecule>
N#C/C=C/C#N

>  <categoryLabel>
condition met

$$$$
>  <molecule>
Nc1ncnc2c1ncn2[C@@H]1O[C@H](CO)[C@@H](OP(=O)(O)O)[C@H]1O

>  <categoryLabel>
condition met

$$$$

// inclusive: melting point at least 70 °C? input: c1ccc(CCc2ccccn2)cc1
condition not met

Continue with C[C@H](CCC(=O)O)[C@H]1CC[C@H]2[C@@H]3C(=O)C[C@@H]4CC(=O)CC[C@]4(C)[C@H]3CC(=O)[C@]12C
condition met

Continue with OCCOc1ccc2ccccc2c1
condition met

Continue with COc1ccc(N(CCCC(=O)O)C(=O)c2ccc(Cl)cc2)cc1
condition met

Continue with Cc1ccc(O)c2ccccc12
condition met

Continue with FC(F)(Cl)C(F)(Cl)Cl
condition not met

Continue with C/C=C(/C(=C/C)c1ccc(O)cc1)c1ccc(O)cc1
condition met

---

Could you please report measured log10 Henry constant (atm·m³/mol) for the items listed next?
Numbers only.

The following compounds have reported results that may help.
>  <compound>
COP(=O)(OC)OC

>  <log10 Henry constant (atm·m³/mol)>
-8.14

$$$$
>  <compound>
CCCCOCCCC

>  <log10 Henry constant (atm·m³/mol)>
-2.22

$$$$
>  <compound>
ClCC(Cl)CCl

>  <log10 Henry constant (atm·m³/mol)>
-3.46

$$$$
>  <compound>
OCC(O)CO

>  <log10 Henry constant (atm·m³/mol)>
-7.76

$$$$
>  <compound>
FC(F)(F)F

>  <log10 Henry constant (atm·m³/mol)>
0.712

$$$$

State recorded log10 Henry constant (atm·m³/mol) for all listed compounds.
1. CC(C)CC(C)O (stereo unspecified)
2. Cc1ccncc1C
3. O=[N+]([O-])c1ccccc1
4. CC1=CCC(C(C)C)=CC1
5. Clc1cccc(-c2cc(Cl)cc(Cl)c2)c1
6. Cc1cccc(C)c1O

[-4.35, -5.43, -4.62, -1.59, -3.77, -5.18]

---

recordedMetric: log10 vapour pressure (mmHg)
Answers are plain numbers.

>  <compound>
FC(F)=CCl

>  <endpointResult>
3.55

$$$$
>  <compound>
O=C1OCc2c(Cl)c(Cl)c(Cl)c(Cl)c21

>  <endpointResult>
-7.65

$$$$
>  <compound>
Cc1ccncc1C

>  <endpointResult>
0.092

$$$$
>  <compound>
Cc1cnccn1

>  <endpointResult>
0.906

$$$$
>  <compound>
CN(C)N

>  <endpointResult>
2.21

$$$$

State recorded log10 vapour pressure (mmHg) for all listed compounds.
1. CCCCCCF
2. CCOP(=O)(NC(C)C)Oc1ccc(SC)c(C)c1 (stereo unspecified)
3. CCC(C)(CC)OC(N)=O
4. CCCN(CCCl)c1c([N+](=O)[O-])cc(C(F)(F)F)cc1[N+](=O)[O-]

1. 1.76
2. -6
3. -0.155
4. -4.52

State recorded log10 vapour pressure (mmHg) for all listed compounds.
1. CCc1ccc(C(C)=O)cc1
2. Clc1cc2c(cc1Cl)Oc1c(cc(Cl)c(Cl)c1Cl)O2

[-0.0389, -9.36]
